// data source = paper PMC6120934

TARGET OF ASSAY: USP21 (Homo sapiens, UniProt Q9UK80)
Construct: recombinant (recUSP21)
Sequence (Q9UK80 whole entry): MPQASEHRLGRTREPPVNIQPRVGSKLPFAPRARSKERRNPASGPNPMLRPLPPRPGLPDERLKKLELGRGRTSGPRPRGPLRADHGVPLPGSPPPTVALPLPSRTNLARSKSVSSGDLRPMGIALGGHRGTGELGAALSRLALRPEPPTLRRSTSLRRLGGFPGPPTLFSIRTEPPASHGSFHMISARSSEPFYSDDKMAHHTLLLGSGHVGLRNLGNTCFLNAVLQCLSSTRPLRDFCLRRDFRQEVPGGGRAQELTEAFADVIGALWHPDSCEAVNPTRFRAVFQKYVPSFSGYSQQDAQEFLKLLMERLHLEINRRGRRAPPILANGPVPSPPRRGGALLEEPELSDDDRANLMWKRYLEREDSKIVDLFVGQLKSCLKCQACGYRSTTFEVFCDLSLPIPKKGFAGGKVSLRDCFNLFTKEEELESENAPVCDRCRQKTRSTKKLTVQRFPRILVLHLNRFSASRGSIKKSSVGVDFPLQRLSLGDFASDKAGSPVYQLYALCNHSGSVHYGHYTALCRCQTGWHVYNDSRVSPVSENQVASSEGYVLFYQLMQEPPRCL
EXPERIMENT SUMMARY: MALDI-TOF DUB activity assay with diubiquitin; […] inhibition at […]
RESULT TYPE: IC50 (µM)
The reply should be a number in µM, with the unit left off.

[Q] Item C=C(C)[C@@H]1CC[C@]2(C(=O)O)CC[C@]3(C)[C@H](CC[C@@H]4[C@@]5(C)CC[C@H](O)C(C)(C)[C@@H]5CC[C@]43C)[C@@H]12 [BA, betulinic acid] has what recorded IC50?
[A] 6.1
